Entries and their self-cleavage values follow.
B1: CPEB3 Ribozyme (parent)
chain: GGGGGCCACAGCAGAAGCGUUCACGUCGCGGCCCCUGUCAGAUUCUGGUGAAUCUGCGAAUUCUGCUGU

Variants of: B1
Assay: self-cleavage, relative activity (ratio to wild type); higher = more cleavage; co-transcriptional
Form rule: numeric answer, no unit written next to it.

Lab note: A16C C27G gave self-cleavage of 0.122

Now for another entry.
Lab note: C6U U21C gave self-cleavage of 0.827
